- Test system: RERF-LC-KJ
- Method notes: relative viability (nuclei count vs DMSO), 5 days (fraction); higher = more cells survive
- Measurement parameters: first compound 0.253 µM
Value kind: relative viability
Give bare numbers.

Solved entries (count: 2):
Cc1cnc(-c2cnc(NCCNc3ccc(C#N)cn3)nc2-c2ccc(Cl)cc2Cl)[nH]1 + NC(=O)Nc1cc(-c2cccc(F)c2)sc1C(=O)N[C@H]1CCCNC1 [AZD7762] (partner 0.2 µM) | 0.801
Cc1cnc(-c2cnc(NCCNc3ccc(C#N)cn3)nc2-c2ccc(Cl)cc2Cl)[nH]1 + COc1cc2c(Oc3ccc(NC(=O)C4(C(=O)Nc5ccc(F)cc5)CC4)cc3F)ccnc2cc1OCCCN1CCOCC1 [Foretinib] (partner 0.25 µM) | 0.796

// input: 7 compounds below; output: relative viability for each
1. Cc1cnc(-c2cnc(NCCNc3ccc(C#N)cn3)nc2-c2ccc(Cl)cc2Cl)[nH]1 + Nc1ncn([C@H]2C[C@H](O)[C@@H](CO)O2)c(=O)n1 [Decitabine] (partner 2 µM)
2. Cc1cnc(-c2cnc(NCCNc3ccc(C#N)cn3)nc2-c2ccc(Cl)cc2Cl)[nH]1 + O=C(CCCCCCC(=O)Nc1ccccc1)NO [Vorinostat] (partner 1 µM)
3. O=c1[nH]c2ccccc2n1C1CCN(CCCC(c2ccc(F)cc2)c2ccc(F)cc2)CC1 [Pimozide] + COc1cccc2cc(-c3nc([C@H]4CC[C@H](C(=O)O)CC4)n4ncnc(N)c34)[nH]c12 [OSI-027] (partner 0.5 µM)
4. O=c1[nH]c2ccccc2n1C1CCN(CCCC(c2ccc(F)cc2)c2ccc(F)cc2)CC1 [Pimozide] + NC(=O)Nc1cc(-c2cccc(F)c2)sc1C(=O)N[C@H]1CCCNC1 [AZD7762] (partner 0.2 µM)
5. Cc1cnc(-c2cnc(NCCNc3ccc(C#N)cn3)nc2-c2ccc(Cl)cc2Cl)[nH]1 + CC(=O)Nc1cccc(-n2c(=O)n(C3CC3)c(=O)c3c(Nc4ccc(I)cc4F)n(C)c(=O)c(C)c32)c1 [Trametinib] (partner 0.02 µM)
6. Cc1cnc(-c2cnc(NCCNc3ccc(C#N)cn3)nc2-c2ccc(Cl)cc2Cl)[nH]1 + C[C@]1(O)C[C@@H](c2nc(-c3ccc4ccc(-c5ccccc5)nc4c3)c3c(N)nccn32)C1 [Linsitinib] (partner 1 µM)
7. O=c1[nH]c2ccccc2n1C1CCN(CCCC(c2ccc(F)cc2)c2ccc(F)cc2)CC1 [Pimozide] + O=C(c1cc(Cc2n[nH]c(=O)c3ccccc23)ccc1F)N1CCN(C(=O)C2CC2)CC1 [Olaparib] (partner 8 µM)

Result:
1. 0.702
2. 0.565
3. 0.513
4. 0.866
5. 0.847
6. 0.828
7. 0.823

---

- Tested on: HCC-78
- Method notes: relative viability (nuclei count vs DMSO), 5 days (fraction); higher = more cells survive
- Measurement parameters: first compound 0.1581 µM
I'd appreciate it if you could supply relative viability values for the items below.
Give bare numbers.

Solved entries (count: 4):
Nc1ccn([C@@H]2O[C@H](CO)[C@@H](O)[C@@H]2O)c(=O)n1 [Cytarabine] + CC(=O)c1c(C)c2cnc(Nc3ccc(N4CCNCC4)cn3)nc2n(C2CCCC2)c1=O [Palbociclib] (partner 0.5 µM) | 0.366
Nc1ccn([C@@H]2O[C@H](CO)[C@@H](O)[C@@H]2O)c(=O)n1 [Cytarabine] + CS(=O)(=O)N1CCN(Cc2cc3nc(-c4cccc5[nH]ncc45)nc(N4CCOCC4)c3s2)CC1 [Pictilisib] (partner 1 µM) | 0.141
Nc1ccn([C@@H]2O[C@H](CO)[C@@H](O)[C@@H]2O)c(=O)n1 [Cytarabine] + O=C(CCCCCCC(=O)Nc1ccccc1)NO [Vorinostat] (partner 1 µM) | 0.348
COc1cc2nccc(Oc3ccc(NC(=O)Nc4cc(C)on4)c(Cl)c3)c2cc1OC [Tivozanib] + CS(=O)(=O)N1CCN(Cc2cc3nc(-c4cccc5[nH]ncc45)nc(N4CCOCC4)c3s2)CC1 [Pictilisib] (partner 1 µM) | 0.14

Okay, next one:
Q: Which relative viability is listed for COc1cc2nccc(Oc3ccc(NC(=O)Nc4cc(C)on4)c(Cl)c3)c2cc1OC [Tivozanib] + Cc1nc(Nc2ncc(C(=O)Nc3c(C)cccc3Cl)s2)cc(N2CCN(CCO)CC2)n1 [Dasatinib] (partner 0.075 µM) ?
Result: 0.263

---

- System: NCI-H520
- Method notes: relative viability (nuclei count vs DMSO), 5 days (fraction); higher = more cells survive
- Measurement parameters: first compound 0.02 µM
I'd appreciate it if you could supply relative viability values for the items below.
One number for each entry.

CC(=O)O[C@@]12CO[C@@H]1C[C@H](O)[C@@]1(C)C(=O)[C@H](O)C3=C(C)[C@@H](OC(=O)[C@H](O)[C@@H](NC(=O)OC(C)(C)C)c4ccccc4)C[C@@](O)([C@@H](OC(=O)c4ccccc4)[C@H]21)C3(C)C [Docetaxel] + Cc1cc(Nc2cc(N3CCN(C)CC3)nc(Sc3ccc(NC(=O)C4CC4)cc3)n2)n[nH]1 [Tozasertib] (partner 0.1 µM) | 0.317

Okay, next one:
Q: Which relative viability is listed for CC(=O)O[C@@]12CO[C@@H]1C[C@H](O)[C@@]1(C)C(=O)[C@H](O)C3=C(C)[C@@H](OC(=O)[C@H](O)[C@@H](NC(=O)OC(C)(C)C)c4ccccc4)C[C@@](O)([C@@H](OC(=O)c4ccccc4)[C@H]21)C3(C)C [Docetaxel] + O=C(CCCCCCC(=O)Nc1ccccc1)NO [Vorinostat] (partner 1 µM) ?
Result: 0.158

---

- Test system: ChaGo-K-1
- Method notes: relative viability (nuclei count vs DMSO), 5 days (fraction); higher = more cells survive
- Measurement parameters: first compound 0.02 µM
Value kind: relative viability

CC(=O)O[C@@]12CO[C@@H]1C[C@H](O)[C@@]1(C)C(=O)[C@H](O)C3=C(C)[C@@H](OC(=O)[C@H](O)[C@@H](NC(=O)OC(C)(C)C)c4ccccc4)C[C@@](O)([C@@H](OC(=O)c4ccccc4)[C@H]21)C3(C)C [Docetaxel] + NC(=O)Nc1cc(-c2cccc(F)c2)sc1C(=O)N[C@H]1CCCNC1 [AZD7762] (partner 0.2 µM) | 0.161

Okay, next one:
Q: Which relative viability is listed for CC(=O)O[C@@]12CO[C@@H]1C[C@H](O)[C@@]1(C)C(=O)[C@H](O)C3=C(C)[C@@H](OC(=O)[C@H](O)[C@@H](NC(=O)OC(C)(C)C)c4ccccc4)C[C@@](O)([C@@H](OC(=O)c4ccccc4)[C@H]21)C3(C)C [Docetaxel] + Nc1nc2[nH]cc(CCc3ccc(C(=O)N[C@@H](CCC(=O)O)C(=O)O)cc3)c2c(=O)[nH]1 [Pemetrexed] (partner 0.2 µM) ?
Result: 0.181

---

- System: EMC-BAC-2
- Method notes: relative viability (nuclei count vs DMSO), 5 days (fraction); higher = more cells survive
- Measurement parameters: first compound 0.8 µM
Rule: relative viability below 0.9 gives True, anything at or above gives False.

Observe how each entry below is paired with its result.
Cc1cnc(-c2cnc(NCCNc3ccc(C#N)cn3)nc2-c2ccc(Cl)cc2Cl)[nH]1 + O=C(c1cc(Cc2n[nH]c(=O)c3ccccc23)ccc1F)N1CCN(C(=O)C2CC2)CC1 [Olaparib] (partner 8 µM) | True
O=c1[nH]c2ccccc2n1C1CCN(CCCC(c2ccc(F)cc2)c2ccc(F)cc2)CC1 [Pimozide] + NC(=O)Nc1cc(-c2cccc(F)c2)sc1C(=O)N[C@H]1CCCNC1 [AZD7762] (partner 0.2 µM) | False

Q: I'd appreciate it if you could check whether O=c1[nH]c2ccccc2n1C1CCN(CCCC(c2ccc(F)cc2)c2ccc(F)cc2)CC1 [Pimozide] + Cc1nc(Nc2ncc(C(=O)Nc3c(C)cccc3Cl)s2)cc(N2CCN(CCO)CC2)n1 [Dasatinib] (partner 0.075 µM) has relative viability smaller than 0.9.
Result: True

Q: I'd appreciate it if you could check whether O=c1[nH]c2ccccc2n1C1CCN(CCCC(c2ccc(F)cc2)c2ccc(F)cc2)CC1 [Pimozide] + N=C(N)NC(=N)NCCc1ccccc1 [Phenformin] (partner 250 µM) has relative viability smaller than 0.9.
Result: True

---

- System: SK-LU-1
- Method notes: relative viability (nuclei count vs DMSO), 5 days (fraction); higher = more cells survive
- Measurement parameters: first compound 0.1265 µM
Value kind: relative viability

Solved entries (count: 4):
Cc1sc2c(c1C)C(c1ccc(Cl)cc1)=N[C@@H](CC(=O)OC(C)(C)C)c1nnc(C)n1-2 [JQ1] + O=C(c1cc(Cc2n[nH]c(=O)c3ccccc23)ccc1F)N1CCN(C(=O)C2CC2)CC1 [Olaparib] (partner 8 µM) | 0.358
Cc1sc2c(c1C)C(c1ccc(Cl)cc1)=N[C@@H](CC(=O)OC(C)(C)C)c1nnc(C)n1-2 [JQ1] + CC(=O)Nc1cccc(-n2c(=O)n(C3CC3)c(=O)c3c(Nc4ccc(I)cc4F)n(C)c(=O)c(C)c32)c1 [Trametinib] (partner 0.02 µM) | 0.444
Cc1sc2c(c1C)C(c1ccc(Cl)cc1)=N[C@@H](CC(=O)OC(C)(C)C)c1nnc(C)n1-2 [JQ1] + Cc1nc(NC(=O)N2CCC[C@H]2C(N)=O)sc1-c1ccnc(C(C)(C)C(F)(F)F)c1 [Alpelisib] (partner 2 µM) | 0.586
Cc1sc2c(c1C)C(c1ccc(Cl)cc1)=N[C@@H](CC(=O)OC(C)(C)C)c1nnc(C)n1-2 [JQ1] + CS(=O)(=O)CCNCc1ccc(-c2ccc3ncnc(Nc4ccc(OCc5cccc(F)c5)c(Cl)c4)c3c2)o1 [Lapatinib] (partner 2 µM) | 0.709

Okay, next one:
Q: Which relative viability is listed for Cc1sc2c(c1C)C(c1ccc(Cl)cc1)=N[C@@H](CC(=O)OC(C)(C)C)c1nnc(C)n1-2 [JQ1] + Cc1nc(Nc2ncc(C(=O)Nc3c(C)cccc3Cl)s2)cc(N2CCN(CCO)CC2)n1 [Dasatinib] (partner 0.075 µM) ?
Result: 0.18
